Conditions: mouse, in vivo, sc, 50 mg/kg
e = 2'-O-(2-methoxyethyl) (MOE); d = 2'-deoxy (DNA)
value_type: Bilirubin (mg/dL)

[[record]]
substance = "ISIS 445509: 5-8-5 or 6-8-6 MOE microwalk gapmer (Table 44) (antisense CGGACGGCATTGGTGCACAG; sugars from the 5' end e6 d8 e6, backbone and methylation of C not given here)"
value_units = "mg/dL"
test_value = 0.17

[[record]]
substance = "ISIS 445503: 5-8-5 or 6-8-6 MOE microwalk gapmer (Table 44) (antisense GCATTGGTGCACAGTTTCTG; sugars from the 5' end e6 d8 e6, backbone and methylation of C not given here)"
value_units = "mg/dL"
test_value = 0.28

[[record]]
substance = "ISIS 445498: 5-8-5 or 6-8-6 MOE microwalk gapmer (Table 44) (antisense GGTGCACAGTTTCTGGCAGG; sugars from the 5' end e6 d8 e6, backbone and methylation of C not given here)"
value_units = "mg/dL"
test_value = 0.24

[[record]]
substance = "ISIS 445532: 5-8-5 or 6-8-6 MOE microwalk gapmer (Table 44) (antisense CGGCATTGGTGCACAGTT; sugars from the 5' end e5 d8 e5, backbone and methylation of C not given here)"
value_units = "mg/dL"
test_value = 0.20

[[record]]
substance = "ISIS 445513: 5-8-5 or 6-8-6 MOE microwalk gapmer (Table 44) (antisense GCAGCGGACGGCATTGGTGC; sugars from the 5' end e6 d8 e6, backbone and methylation of C not given here)"
value_units = "mg/dL"
test_value = 0.22

[[record]]
substance = "ISIS 445504: 5-8-5 or 6-8-6 MOE microwalk gapmer (Table 44) (antisense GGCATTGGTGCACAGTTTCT; sugars from the 5' end e6 d8 e6, backbone and methylation of C not given here)"
value_units = "mg/dL"
test_value = 0.17

[[record]]
substance = "ISIS 445530: 5-8-5 or 6-8-6 MOE microwalk gapmer (Table 44) (antisense GCATTGGTGCACAGTTTC; sugars from the 5' end e5 d8 e5, backbone and methylation of C not given here)"
value_units = "mg/dL"
test_value = 0.18

[[record]]
substance = "ISIS 445505: 5-8-5 or 6-8-6 MOE microwalk gapmer (Table 44) (antisense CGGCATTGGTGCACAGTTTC; sugars from the 5' end e6 d8 e6, backbone and methylation of C not given here)"
value_units = "mg/dL"
test_value = 0.18


* * *

Test: Liver function, ALT, AST, bilirubin in cynomolgus monkeys (Example 46)
Type: in vivo
Settings: Day 55; plasma
Strand notation (5' to 3'): a small letter for the sugar, then the base; units joined by * are phosphorothioate-linked, units joined directly phosphodiester-linked; [ ] holds rarer units or linkages, { } end groups; capitals alone tell only the bases. e = 2'-O-(2-methoxyethyl) (MOE); [5mC] = 5-methylcytosine; d = 2'-deoxy (DNA)
value_type: AST (IU/L)

[[record]]
substance = "ISIS 449708: 3-8-3, 4-8-4, 2-10-2, 3-10-3 or 4-10-4 MOE microwalk gapmer (Table 46) (antisense eA*e[5mC]*eA*dG*dT*dT*dT*d[5mC]*dT*dG*dG*e[5mC]*eA*eG)"
value_type = "AST"
test_value = 50

[[record]]
substance = "ISIS 445522: 5-8-5 or 6-8-6 MOE microwalk gapmer (Table 44) (antisense eG*e[5mC]*eA*e[5mC]*eA*dG*dT*dT*dT*d[5mC]*dT*dG*dG*e[5mC]*eA*eG*eG*e[5mC])"
value_type = "AST"
test_value = 79

[[record]]
substance = "ISIS 449710: 3-8-3, 4-8-4, 2-10-2, 3-10-3 or 4-10-4 MOE microwalk gapmer (Table 46) (antisense e[5mC]*eA*e[5mC]*dA*dG*dT*dT*dT*d[5mC]*dT*dG*dG*d[5mC]*eA*eG*eG)"
value_type = "AST"
test_value = 64

[[record]]
substance = "ISIS 449711: 3-8-3, 4-8-4, 2-10-2, 3-10-3 or 4-10-4 MOE microwalk gapmer (Table 46) (antisense eA*e[5mC]*dA*dG*dT*dT*dT*d[5mC]*dT*dG*dG*d[5mC]*eA*eG)"
value_type = "AST"
test_value = 47

[[record]]
substance = "ISIS 445531: 5-8-5 or 6-8-6 MOE microwalk gapmer (Table 44) (antisense eG*eG*e[5mC]*eA*eT*dT*dG*dG*dT*dG*d[5mC]*dA*d[5mC]*eA*eG*eT*eT*eT)"
value_type = "AST"
test_value = 49

